# pIC50 per entry
tested on: BT-549; test: Antiproliferative activity against human BT-549 cells assessed as inhibition of cell proliferation incubated for 48 hrs by MTT assay; assay type: functional, cell-based; conditions: BT-549, 48 h
pIC50: −log10 of the molar value.
measure: pIC50

* CC(C)=CCC/C(C)=C/[C@H]1OC(=O)C[C@]12C[C@H](OC(=O)Cc1ccc(NC(=O)[C@H](Cl)c3ccccc3)cc1)C=CC2=O | 6.24
* CC(C)=CCC/C(C)=C/[C@H]1OC(=O)C[C@]12C[C@H](OC(=O)Cc1ccc(F)cc1Cl)C=CC2=O | 5.67
* CC(C)=CCC/C(C)=C/[C@H]1OC(=O)C[C@]12C[C@H](OC(=O)Cn1cnc3c(=O)n(C)c(=O)n(C)c31)C=CC2=O | 5.46
* COC(=O)C[C@@]1([C@H](O)/C=C(\C)CCC=C(C)C)C[C@H](O)C=CC1=O [(+)-MILIUSANE XVIII] | 5.65

----------
The following compounds are shown together with reported selectivity ratio at 24 h values.
test: Selectivity ratio of IC50 for antiproliferative activity against human MCF-10A cells assessed as inhibition of cell proliferation incubated for 24 hrs by MTT assay to IC50 for antiproliferative activity against human BT-549 cells assessed as inhibition of cell proliferation incubated for 24 hrs by MTT assay; assay type: toxicity, cell-based; conditions: MCF-10A cells versus BT-549 cells, read-out: Ratio IC50
measure: selectivity ratio at 24 h

• CC(=O)O[C@H]1C(=O)[C@@]2(C)[C@H]([C@H](OC(=O)c3ccccc3)[C@]3(O)C[C@H](OC(=O)[C@H](O)[C@@H](NC(=O)c4ccccc4)c4ccccc4)C(C)=C1C3(C)C)[C@]1(OC(C)=O)CO[C@@H]1C[C@@H]2O = 1.18
• CC(C)=CCC/C(C)=C/[C@H]1OC(=O)CC12C[C@H](OC(=O)Cc1ccc(NC(=O)/C=C/c3ccccc3)cc1)C=CC2=O (some centres not stated) = 57.7

----------
Listed next: entries and their corresponding pIC50.
system: BT-549; experiment: Antiproliferative activity against human BT-549 cells assessed as inhibition of cell proliferation incubated for 48 hrs by MTT assay; format: functional, cell-based; details: BT-549, 48 h
pIC50: −log10 of the molar value.
measure: pIC50

* CC(C)=CCC/C(C)=C/[C@H]1OC(=O)C[C@]12C[C@H](OC(=O)Cc1ccc(F)cc1)C=CC2=O | 5.65
* COc1ccccc1C(=O)Nc1ccc(CC(=O)O[C@@H]2C=CC(=O)[C@@]3(CC(=O)O[C@@H]3/C=C(\C)CCC=C(C)C)C2)cc1 | 6.17
* CC(C)=CCC/C(C)=C/[C@H]1OC(=O)C[C@]12C[C@H](OC(=O)c1cc3ccccc3n1C)C=CC2=O | 5.91
* CC(C)=CCC/C(C)=C/[C@H]1OC(=O)C[C@]12C[C@H](OC(=O)Cc1ccc(NC(=O)c3ccccc3Cl)cc1)C=CC2=O | 6.08
* CC(C)=CCC/C(C)=C/[C@H]1OC(=O)C[C@]12C[C@H](OC(=O)c1csc(Br)n1)C=CC2=O | 6.21
* CC(C)=CCC/C(C)=C/[C@H]1OC(=O)C[C@]12C[C@H](OC(=O)Cc1ccc(NC(=O)C(C)(C)C)cc1)C=CC2=O | 6.10
* CC(C)=CCC/C(C)=C/[C@H]1OC(=O)C[C@]12C[C@H](O)C=CC2=O | 5.52
* COC(=O)C[C@@]12C[C@@H](C=CC1=O)O[C@@H]2/C=C(\C)CCC=C(C)C | 6.01
* CC(C)=CCC/C(C)=C/[C@H]1OC(=O)C[C@]12C[C@H](OC(=O)/C=C/C=C/c1ccc3c(c1)OCO3)C=CC2=O | 5.54
* COc1cccc(OC)c1C(=O)Nc1ccc(CC(=O)O[C@@H]2C=CC(=O)[C@@]3(CC(=O)O[C@@H]3/C=C(\C)CCC=C(C)C)C2)cc1 | 5.84
* CC(C)=CCC/C(C)=C/[C@H]1OC(=O)C[C@]12C[C@H](OC(=O)Cc1ccc(NC(=O)/C=C/c3ccccc3)cc1)C=CC2=O | 6.66
* CCC/C=C/C(=O)O[C@@H]1C=CC(=O)[C@@]2(CC(=O)O[C@@H]2/C=C(\C)CCC=C(C)C)C1 | 4.96
* CC(=O)Nc1ccc(CC(=O)O[C@@H]2C=CC(=O)[C@@]3(CC(=O)O[C@@H]3/C=C(\C)CCC=C(C)C)C2)cc1 | 5.38
* CC(C)=CCC/C(C)=C/[C@H]1OC(=O)C[C@]12C[C@H](OC(=O)Cc1ccc3c(c1)OCO3)C=CC2=O | 5.47
* CC(C)=CCC/C(C)=C/[C@H]1OC(=O)C[C@]12C[C@H](OC(=O)Cc1ccc(NC(=O)OC(C)(C)C)cc1)C=CC2=O | 5.88

----------
test: Antiproliferative activity against human MCF-10A cells assessed as inhibition of cell proliferation incubated for 24 hrs by MTT assay; format: toxicity, cell-based
measure: IC50 at 24 h (µM)

- CC(C)=CCC/C(C)=C/[C@H]1OC(=O)CC12C[C@H](OC(=O)Cc1ccc(NC(=O)/C=C/c3ccccc3)cc1)C=CC2=O (some centres not stated): 57.1
- CC(=O)O[C@H]1C(=O)[C@@]2(C)[C@H]([C@H](OC(=O)c3ccccc3)[C@]3(O)C[C@H](OC(=O)[C@H](O)[C@@H](NC(=O)c4ccccc4)c4ccccc4)C(C)=C1C3(C)C)[C@]1(OC(C)=O)CO[C@@H]1C[C@@H]2O: 0.33

----------
tested on: BT-549; assay: Antiproliferative activity against human BT-549 cells assessed as inhibition of cell proliferation incubated for 48 hrs by MTT assay; assay type: functional, cell-based; settings: BT-549, 48 h
pIC50: −log10 of the molar value.
measure: pIC50

• C=CC(=O)Nc1ccc(CC(=O)O[C@@H]2C=CC(=O)[C@@]3(CC(=O)O[C@@H]3/C=C(\C)CCC=C(C)C)C2)cc1 = 5.51
• CC(C)=CCC/C(C)=C/[C@H]1OC(=O)C[C@]12C[C@H](OC(=O)CCC(=O)NCC1CC3C=CC1C3)C=CC2=O (stereo partly drawn) = 5.81
• CC(C)=CCC/C(C)=C/[C@H]1OC(=O)C[C@]12C[C@H](OC(=O)CNC(=O)OC(C)(C)C)C=CC2=O = 5.94

----------
test system: BT-549; assay: Antiproliferative activity against human BT-549 cells assessed as inhibition of cell proliferation incubated for 48 hrs by MTT assay; format: functional, cell-based; conditions: BT-549, 48 h
Readings of IC50 for the listed compounds
measure: IC50 (nM)

- CC(=O)O[C@H]1C(=O)[C@@]2(C)[C@H]([C@H](OC(=O)c3ccccc3)[C@]3(O)C[C@H](OC(=O)[C@H](O)[C@@H](NC(=O)c4ccccc4)c4ccccc4)C(C)=C1C3(C)C)[C@]1(OC(C)=O)CO[C@@H]1C[C@@H]2O: 50
- CC(C)=CCC/C(C)=C/[C@H]1OC(=O)C[C@]12C[C@H](OC(=O)Cc1ccc(NC(=O)c3cccs3)cc1)C=CC2=O: 640
- CC(C)=CCC/C(C)=C/[C@H]1OC(=O)C[C@]12C[C@H](OC(=O)Cc1ccc(NC(=O)c3ccccc3)cc1)C=CC2=O: 370
- CC(C)=CCC/C(C)=C/[C@H]1OC(=O)C[C@]12C[C@H](OC(=O)Cc1ccc(NC(=O)C3CC3)cc1)C=CC2=O: 230
- CC(C)=CCC/C(C)=C/[C@H]1OC(=O)C[C@]12C[C@H](OC(=O)Cc1ccc(Cl)cc1Cl)C=CC2=O: 8230
- CC(C)=CCC/C(C)=C/[C@H]1OC(=O)C[C@]12C[C@H](OC(=O)Cc1cccs1)C=CC2=O: 2460
- CC(C)=CCC/C(C)=C/[C@H]1OC(=O)C[C@]12C[C@H](OC(=O)Cn1nnc3ccccc31)C=CC2=O: 3900

----------
test: Antiproliferative activity against human MCF-10A cells assessed as inhibition of cell proliferation incubated for 48 hrs by MTT assay; assay type: toxicity, cell-based
measure: IC50 at 48 h

- CC(=O)O[C@H]1C(=O)[C@@]2(C)[C@H]([C@H](OC(=O)c3ccccc3)[C@]3(O)C[C@H](OC(=O)[C@H](O)[C@@H](NC(=O)c4ccccc4)c4ccccc4)C(C)=C1C3(C)C)[C@]1(OC(C)=O)CO[C@@H]1C[C@@H]2O [PACLITAXEL]: 0.09 µM
- CC(C)=CCC/C(C)=C/[C@H]1OC(=O)CC12C[C@H](OC(=O)Cc1ccc(NC(=O)/C=C/c3ccccc3)cc1)C=CC2=O (some centres not stated): 16 µM
